Origin of measurements: PubChem BioAssay (NCI)

Overview of recorded TGI for various compounds
tested on: UACC-62 melanoma; assay: NCI tumour cell line growth inhibition, 48 h

{"columns": ["compound", "assayed.system", "reported.relation", "TGI (µM)"],
 "data": [
  ["COc1cc2c3c(n(CCCNC4=NCCS4)c(=O)c2cc1OC)-c1cc2c(cc1C3=O)OCO2", "UACC-62 melanoma", "=", 1.66],
  ["O=C1OC2C=CCC1C2 (stereo unspecified)", "UACC-62 melanoma", ">", 100],
  ["Cc1ccc(S(=O)(=O)C(CC(NC=O)S(=O)(=O)c2ccc(C)cc2)NC=O)cc1 (stereo unspecified)", "UACC-62 melanoma", ">", 100],
  ["COc1ccc(C(=S)N(C)NC(=O)CC(=O)NN(C)C(=S)c2ccc(OC)cc2)cc1", "UACC-62 melanoma", ">", 100],
  ["COc1ccc(-c2ccc(-c3ccc(C(=N)N)c(F)c3)s2)cc1", "UACC-62 melanoma", "=", 3.7],
  ["CCn1c(=O)c2cn[nH]c2n(C)c1=O", "UACC-62 melanoma", ">", 100],
  ["O=c1c(=O)c2cscc2c1=O", "UACC-62 melanoma", "=", 8.75],
  ["COc1ccc(C(=O)/C=C/c2ccc(Oc3cc(C(=O)/C=C/c4ccc(O)cc4)c(O)cc3OC)cc2)c(O)c1", "UACC-62 melanoma", "=", 11.2],
  ["O=C1Nc2c(Cl)cc(Cl)cc2C1=O", "UACC-62 melanoma", "=", 30.2],
  ["CCCCCCN1CCc2c(C)c(C#N)c3nc4ccccc4n3c21", "UACC-62 melanoma", ">", 100],
  ["COC(=O)/C=C\\[C@H]1[C@H](C)N1S(=O)(=O)c1ccc(C)cc1 (stereo partly specified)", "UACC-62 melanoma", ">", 100]
]}

---

test system: LOX IMVI melanoma; test: NCI tumour cell line growth inhibition, 48 h
Threshold check on TGI: at or above 4 µM gives TRUE, strictly below gives FALSE.

{"columns": ["compound", "classification"],
 "data": [
  ["CSc1cc(-c2cc3ccccc3o2)oc(=O)c1C#N", "TRUE"],
  ["CCC(=O)OC1=C(c2ccccc2)Sc2ccc(Cl)cc2-n2cccc21", "TRUE"],
  ["Cc1cccc2c(NCCCN(C)C)c3c([N+](=O)[O-])ccc(C)c3nc12", "FALSE"],
  ["CCCCNC(=O)c1cc(S(=O)(=O)n2cc[nH]c2=O)c(SC)cc1Cl", "TRUE"],
  ["CN(C)CCONC(=O)C12CC3CC(CC(C3)C1)C2", "TRUE"],
  ["CCOC(=O)[C@@H]1[C@@H]2NC(=O)N[C@@]1(C)Oc1ccccc12", "TRUE"],
  ["COc1ccc(/C=C/C2C(C#N)=C(N)OC3=C2C(=O)CCC3)cc1 (configuration not stated)", "TRUE"],
  ["S=c1[nH]nc(-c2ccccc2)n1/N=C\\c1ccc(-c2ccc(Cl)cc2)o1", "TRUE"],
  ["Cc1[nH]c(=O)nc2nc3ccc(Cl)cc3c(N(CCO)CCO)c12", "TRUE"],
  ["C[CH2][Pb]([CH2]C)([CH2]C)[O]C(=O)COC", "FALSE"],
  ["COc1ccc(C(NS(=O)(=O)c2ccc(C)cc2)c2c(C(CBr)OC)c3ccccc3n2S(=O)(=O)c2ccccc2)cc1OC (configuration not stated)", "TRUE"],
  ["CC(=O)OC1C[C@@H](C)C2(CC(c3ccoc3)OC2=O)C2CCC(O)C3(CO3)C12CO (some centres not stated)", "TRUE"],
  ["NC(=O)c1cn(C2OC(CO)C(O)C2O)c(=O)[nH]c1=O (configuration not stated)", "TRUE"],
  ["COc1cc(C2CC(c3cccc(Nc4ccncc4)c3)=NN2c2ccccc2)cc(OC)c1OC (configuration not stated)", "FALSE"],
  ["c1ccc(CC(Cc2ccccc2)C2=NCCCN2)cc1", "TRUE"],
  ["COc1ccc(/C=C2\\CCC(CN3CCOCC3)C2=O)cc1 (configuration not stated)", "TRUE"],
  ["COC(=O)C1[C@@H](C(=O)OC)C(=O)O[C@H]1c1cc(OC)c(OC)c(OC)c1 (some centres not stated)", "TRUE"],
  ["CC1=C(C(=O)CC(=O)C(=O)Nc2ccc(Cl)cc2C)Sc2ccccc2N1", "TRUE"],
  ["C=[CH][Sn]([CH]=C)([S]c1cccc2cccnc12)[S]c1cccc2cccnc12", "FALSE"],
  ["COc1ccc(C2C=C(c3ccc(OC)c(OC)c3)N=C3SC=CN32)c(Br)c1 (configuration not stated)", "FALSE"],
  ["CC(=O)N/C=C/c1cc(O)ccc1O", "TRUE"],
  ["Nc1ncnc2c1ncn2C1CC(O)C(CO)O1 (configuration not stated)", "TRUE"]
]}

---

test system: MDA-MB-435; test: NCI tumour cell line growth inhibition, 48 h

{"columns": ["compound", "reported.relation", "TGI, µM"],
 "data": [
  ["Nc1nc(Cl)c(N=Nc2ccc(Cl)cc2)c(NCC2(CO)CCC(CCc3ccccc3)C2)n1 (stereo not given)", "=", 23.7],
  ["C[C@]12CCC(N3CCCC3)CC1=CC[C@@H]1[C@@H]2CC[C@]2(C)C(O)[C@H](n3ccnc3)C[C@@H]12 (stereo not given in full)", ">", 100],
  ["OC(COc1cccc2ccccc12)CN1CCOCC1 (stereo not given)", ">", 100],
  ["O=S(=O)(c1ccccc1)n1c(C(O)c2ccccc2)cc2ccccc21 (stereo not given)", "=", 36.4],
  ["Cn1cc(-c2csc(-c3c[nH]c4ccccc34)n2)c2cnccc21", "=", 3.43]
]}

---

test system: LXFL 529 NSCLC; test: NCI tumour cell line growth inhibition, 48 h
Where a SMILES comes first, the peptide text is derived from it. [ ]: non-standard residue; d: D form. The star is where a group is joined. ξ: configuration not given here. NMeF = CN[C@@H](Cc1ccccc1)C(=O)O; NMeV = CN[C@H](C(=O)O)C(C)C; ξNMeN = CNC(CC(N)=O)C(=O)O; NMeA = CN[C@@H](C)C(=O)O; ξNMeV = CNC(C(=O)O)C(C)C; Boc = CC(C)(C)OC(=O)*
readout.type: TGI

{"columns": ["compound", "meas.value"],
 "data": [
  ["COC1O[C@@H]2COC(C)(C)O[C@@H]2C(=O)N1Nc1ccc([N+](=O)[O-])cc1 (some centres undefined)", "> 100 µM"],
  ["CCCCCCCCCCCCCC(=O)NCO", "> 100 µM"],
  ["COC(=O)C(=O)C(C(=O)C(=O)Nc1ccc(OC)cc1[N+](=O)[O-])c1nc2ccc([N+](=O)[O-])cc2[nH]c1=O (centres undefined)", "> 100 µM"],
  ["COC[C@@H]1[C@H]2OC(C)(C)O[C@H]2C(=O)N1C(=O)c1ccc(OC)cc1", "> 100 µM"],
  ["COC1/C(=C\\c2ccccc2I)c2ccccc2N1C(C)=O (centres undefined)", "87.4 µM"],
  ["Cc1ccc(C2CC(c3cccc([N+](=O)[O-])c3)=Nc3ccccc3S2)cc1 (centres undefined)", "> 100 µM"],
  ["O=C1C(c2ccc([N+](=O)[O-])cc2)=C(Cl)C(=O)c2c(O)cccc21", "23.2 µM"],
  ["CC(C)N(C(C)C)[PH+]1O[PH+](N(C(C)C)C(C)C)O[PH+](N(C(C)C)C(C)C)O[PH+](N(C(C)C)C(C)C)O1.[C-]#[O+].[C-]#[O+].[C-]#[O+].[C-]#[O+].[C-]#[O+].[C-]#[O+].[C-]#[O+].[C-]#[O+].[Mo].[Mo] (centres undefined)", "> 100 µM"],
  ["CC(C)NC(C)C(C)c1ccccc1 (centres undefined)", "> 100 µM"],
  ["Cc1cnc(-c2ccccc2)o1", "> 100 µM"],
  ["CN(C)CC1CC/C(=C\\c2ccc(Cl)cc2)C1=O (centres undefined)", "4.13 µM"],
  ["CCOC(OC1=C(C#N)CCC1)C(C)[Se]c1ccccc1 (centres undefined)", "46 µM"],
  ["O=C(Cc1ccc(F)cc1)NC1=C(Cl)C(=O)c2ccccc2C1=O", "10.5 µM"],
  ["COC(=O)C1=C(C=O)C2C=CC1C2 (centres undefined)", "39.7 µM"],
  ["CN(C)CC/C(=N\\Nc1ccc(Cl)cc1)c1ccccc1", "0.373 µM"],
  ["CCC1=C(C(C)=O)[C@@H]2CCCCC(C(=O)OC)[C@@H]2C1=O (some centres undefined)", "> 100 µM"],
  ["CC1=CC2C(=O)N(c3ccccc3)C(=O)C2CC1n1[nH]c(=O)n(Cc2ccccc2)c1=O (centres undefined)", "> 100 µM"],
  ["C/C(CC(=O)Nc1ccc(Cl)c(Cl)c1)=N/NC(=O)C[N+](C)(C)C", "> 100 µM"],
  ["COC(=O)[C@H](C)N(C)C(=O)C(CC(N)=O)N(C)C(=O)[C@H](Cc1ccccc1)N(C)C(=O)[C@@H]1CCCN1C(=O)[C@H](C(C)C)N(C)C(=O)C(C(C)C)N(C)C(=O)[C@@H](NC(=O)OC(C)(C)C)C(C)C (some centres undefined) (Boc-V[ξNMeV][NMeV]P[NMeF][ξNMeN][NMeA]-OMe)", "> 75 µM"]
]}
